measured.target: aSMase (Rattus norvegicus)
Construct: Crude preparations containing aSMase or nSMase were made from stripped rat brains; from tissue; host or cells: rat brain
method.notes: fluorescent aSMase assay with HMU-PC substrate
Assay type: biochemical
measurement.context: read-out: Inhibition [%] at 20 μM (aSMase, initial bisphosphonate collection)
We use 30% as the dividing line for inhibition at 20 µM: on or above the line is true (1), below is false (0).

Answered cases to consult:
O=P(O)(O)C(Nc1ccccc1)P(=O)(O)O	false (0)
CN(C)C(P(=O)(O)O)P(=O)(O)O	false (0)

Exercise: Is reported inhibition at 20 µM greater than or equal to 30% here: `C=CCN(CC=C)C(P(=O)(O)O)P(=O)(O)O`
Solution: true (1)

Exercise: How about this compound: `CCCCNC(P(=O)(O)O)P(=O)(O)O`
Solution: true (1)

Exercise: How about this compound: `NCCCCCC(O)(P(=O)(O)O)P(=O)(O)O`
Solution: true (1)

---

# IC50 measurements, system: aSMase (Rattus norvegicus, UniProt F7ETC0)
Enter your answer as a number in nM; do not include the unit.

Examples with their reported IC50 follow.
CCCCCC(N(C)C)(P(=O)(O)O)P(=O)(O)O [Compound 19a]	9500
CCCCCCCCCC(OP(=O)(O)O)P(=O)(O)O (stereo not drawn) [Compound 17, Decyl-1,1-phosphate phosphonate]	350
CCCCCCCCCC(N(C)C)(P(=O)(O)O)P(=O)(O)O [Compound 19b]	180
O=P(O)(O)C(O)(Cn1ccnc1)P(=O)(O)O [Compound 20, zoledronic acid, reference compound]	5080

Exercise: Form field: IC50 recorded for CCCCCCCC(N)(P(=O)(O)O)P(=O)(O)O [Compound 7b] with aSMase (Rattus norvegicus, UniProt F7ETC0) (enter value)
Solution: 40

---

# Lookup of reported inhibition at 20 µM keyed by entry
measured.target: aSMase (Rattus norvegicus)
Construct: Crude preparations containing aSMase or nSMase were made from stripped rat brains; from tissue; host or cells: rat brain
method.notes: fluorescent aSMase assay with HMU-PC substrate
Format: biochemical
measurement.context: read-out: Inhibition [%] at 20 μM (aSMase, initial bisphosphonate collection)
Enter your answer as a number in %; do not include the unit.

Examples with their reported inhibition at 20 µM follow.
O=P(O)(O)C(N(CO)CO)P(=O)(O)O [Compound 13]	36
CC(NCC(=O)O)(P(=O)(O)O)P(=O)(O)O [Compound 8]	62
CC(C)CN(CC(C)C)C(P(=O)(O)O)P(=O)(O)O [Compound 12]	2
CCCCCC(N)(P(=O)(O)O)P(=O)(O)O [Compound 7a]	92

Consider the additional compound presented here.
Exercise: Given CCCCCCCC(N)(P(=O)(O)O)P(=O)(O)O [Compound 7b] , state its recorded inhibition at 20 µM.
Solution: 93

---

# Lookup of reported inhibition at 20 µM keyed by entry
measured.target: aSMase (Rattus norvegicus)
Construct: Crude preparations containing aSMase or nSMase were made from stripped rat brains; from tissue; host or cells: rat brain
Sequence (F7ETC0 1-626): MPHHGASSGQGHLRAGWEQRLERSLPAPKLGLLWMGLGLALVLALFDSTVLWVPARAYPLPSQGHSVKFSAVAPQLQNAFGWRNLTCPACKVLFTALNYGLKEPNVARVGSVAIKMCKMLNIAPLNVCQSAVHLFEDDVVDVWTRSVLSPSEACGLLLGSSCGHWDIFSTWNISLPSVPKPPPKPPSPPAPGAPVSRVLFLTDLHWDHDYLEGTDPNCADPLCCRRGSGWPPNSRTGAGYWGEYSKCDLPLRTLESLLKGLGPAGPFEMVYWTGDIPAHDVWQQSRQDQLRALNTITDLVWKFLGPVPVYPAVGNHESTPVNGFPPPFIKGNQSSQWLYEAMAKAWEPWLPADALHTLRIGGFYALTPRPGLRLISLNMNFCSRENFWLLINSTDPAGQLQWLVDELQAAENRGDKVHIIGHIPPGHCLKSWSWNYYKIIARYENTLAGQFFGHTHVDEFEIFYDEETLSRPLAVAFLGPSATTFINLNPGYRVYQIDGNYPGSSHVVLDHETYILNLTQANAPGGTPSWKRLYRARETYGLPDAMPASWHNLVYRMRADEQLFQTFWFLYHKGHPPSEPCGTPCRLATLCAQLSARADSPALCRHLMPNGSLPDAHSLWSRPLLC
method.notes: fluorescent aSMase assay with HMU-PC substrate
Format: biochemical
measurement.context: read-out: Inhibition [%] at 20 μM (aSMase, initial phosphonate collection)
Quick note: number first, unit second.

Examples with their reported inhibition at 20 µM follow.
O=P(O)(O)CN(CP(=O)(O)O)CP(=O)(O)O	0%
O=P(O)(O)CN(CCN(CP(=O)(O)O)CP(=O)(O)O)CCN(CP(=O)(O)O)CP(=O)(O)O	-5%
NC(CP(=O)(O)O)P(=O)(O)O (stereo not shown)	47%

Consider the additional compound presented here.
Exercise: Given `CCCCP(=O)(O)O` , state its recorded inhibition at 20 µM.
Solution: 2%

// provenance: patent US20120178720A1
